Parameter combination Emax: see the listing below.
test system: COLO-205 (Colorectal Carcinoma); assay: combination Emax (second highest fraction inhibited in the dose matrix, 72 h); higher = more inhibition; extreme values may be limits of the assay
Would you mind answering with just the numeric figure?

Recorded result, CN(CCO)CC[C@H](CSc1ccccc1)Nc1ccc(S(=O)(=O)NC(=O)c2ccc(N3CCC([C@@H](O)c4ccccc4-c4ccc(Cl)cc4)CC3)cc2)cc1S(=O)(=O)C(F)(F)F [AZD4320] + C[C@@H]1COCCN1C2=NC(=NC(=C2)C3(CC3)[S@](=N)(=O)C)C4=C5C=CNC5=NC=C4 [AZD6738] (first compound max 1 µM, 7x7, partner max 10 µM) , combination Emax: 0.623

// CS(=O)(=O)CCNCc1ccc(-c2ccc3ncnc(Nc4ccc(OCc5cccc(F)c5)c(Cl)c4)c3c2)o1 [Lapatinib] + C[C@@H](Oc1cc(-c2cnn(C3CCNCC3)c2)cnc1N)c1c(Cl)ccc(F)c1Cl [Crizotinib] (first compound max 10 µM, 7x7, partner max 10 µM) : combination Emax value = 0.939

Next molecule, please.
# molecule COc1cc2ncnc(Nc3ccc(F)c(Cl)c3)c2cc1OCCCN1CCOCC1 [Gefitinib] + CC(C)n1c(=O)n(C)c2cnc3cc(F)c(-c4ccc(OCCCN5CCCCC5)nc4)cc3c21 [AZD1390] (first compound max 10 µM, 7x7, partner max 0.3 µM) ; its combination Emax = 0.135
